Record set: IC50 | Galectin-3 (Homo sapiens, UniProt P17931) | literature, multiple sources.
One number for each entry, in nM.

List IC50 for every entry below, keeping the order given.
1. CO[C@@H]1[C@@H](n2cc(-c3cc(F)c(F)c(F)c3)nn2)[C@@H](O)[C@@H](CO)O[C@@H]1CC1=NO[C@]2(CC[C@@H](C)CC2)C1
2. [2H]C([2H])([2H])OC1C(n2cc(-c3cc(F)c(F)c(F)c3)nn2)[C@@H](O)C(CO)O[C@H]1[C@H](OCc1ccc(Cl)cc1)C(C)=NOCC (some centres unmarked)
3. CO[C@@H]1[C@@H](n2cc(-c3ccc(Br)cc3)nn2)[C@@H](O)[C@@H](CO)O[C@H]1C(=O)N(c1cc(Cl)cc(C#N)c1)[C@@H]1CCC[C@H]1O
4. CCNC(=O)N1CCC(c2cc(C[C@H]3O[C@H](CO)[C@H](O)[C@H](n4cc(-c5cc(F)c(F)c(F)c5)nn4)[C@H]3O)no2)CC1
5. O=C([C@@H]1O[C@H](CO)[C@H](O)[C@H](n2cc(-c3cc(F)c(F)c(F)c3)nn2)[C@H]1O)N(Cc1csc(Br)n1)[C@H]1CCCC[C@@H]1O
6. OC[C@H]1O[C@H](CC2CC(c3ccncc3)=NO2)[C@H](O)[C@@H](n2cc(-c3cc(F)c(F)c(F)c3)nn2)[C@H]1O (some centres unmarked)

A.
1. 520
2. 10300
3. 312
4. 32
5. 352
6. 430

List IC50 for every entry below, keeping the order given.
1. OC[C@H]1O[C@H](CC2CC(c3cccc(Cl)c3)=NO2)[C@H](O)[C@@H](n2cc(-c3cc(F)c(F)c(F)c3)nn2)[C@H]1O (some centres unmarked)
2. CC(C)(C)c1cc(C[C@H]2O[C@H](CO)[C@H](O)[C@H](n3cc(-c4ccc(F)c(F)c4F)nn3)[C@H]2OCC(=O)O)on1
3. CO[C@@H]1[C@@H](n2cc(-c3ccc(F)c(F)c3F)nn2)[C@@H](O)[C@@H](CO)O[C@@H]1Cc1cc(C2(C)CCCC2)on1
4. CO[C@@H]1[C@@H](n2cc(-c3cc(F)c(F)c(F)c3)nn2)[C@@H](O)[C@@H](CO)O[C@@H]1CC1=NOC(C2CCN(C(C)=O)CC2)C1 (mixture of isomers)
5. CO[C@@H]1[C@@H](n2cc(-c3cc(F)c(Br)c(F)c3)nn2)[C@@H](O)[C@@H](CO)O[C@H]1C(=O)N(c1ccc2scnc2c1)[C@H]1CCCC[C@@H]1O

A.
[970, 47, 66, 310, 25]

* * *

Record set: pIC50 | Galectin-3 (Homo sapiens, UniProt P17931) | literature, multiple sources.
Numbers only, as −log10 of the molar value.

// solved cases for pIC50 follow
OC[C@H]1O[C@H](Cc2cc(C3CCC(O)CC3)on2)[C@H](O)[C@@H](n2cc(-c3cc(F)c(F)c(F)c3)nn2)[C@H]1O (stereo partly drawn) :: 6.72
[2H]C([2H])([2H])OC1C(n2cc(-c3cc(F)c(F)c(F)c3)nn2)[C@@H](O)C(CO)O[C@H]1[C@H](OCc1ccc(Br)c(F)c1)C(=O)NC(C)C (stereo partly drawn) :: 6.11
CO[C@@H]1[C@@H](n2cc(-c3cc(F)c(C)c(F)c3)nn2)[C@@H](O)[C@@H](CO)O[C@H]1C(=O)N(c1cc(Cl)cc(Cl)c1)[C@H]1CC[C@@H]1O :: 7.42
COc1ccc(C2=NOC(C[C@H]3O[C@H](CO)[C@H](O)[C@H](n4cc(-c5cc(F)c(F)c(F)c5)nn4)[C@H]3O)C2)cc1O (stereo partly drawn) :: 6.17
CCOC(=O)N1CCC(c2cc(C[C@H]3O[C@H](CO)[C@H](O)[C@H](n4cc(-c5ccc(F)c(F)c5F)nn4)[C@H]3OC)no2)CC1 :: 7.64
CN=S(=O)(C(C)C)N1CCC(c2cn(C[C@H]3O[C@H](CO)[C@H](O)[C@H](n4cc(-c5cc(F)c(F)c(F)c5)nn4)[C@H]3OC)nn2)CC1 (stereo partly drawn) :: 6.92
CO[C@@H]1[C@@H](n2cc(-c3ccc(F)c(F)c3F)nn2)[C@@H](O)[C@@H](CO)O[C@@H]1CC1CC(C2CCNCC2)=NO1 (stereo partly drawn) :: 6.74
CO[C@@H]1[C@@H](n2cc(-c3ccc(C)c(F)c3F)nn2)[C@@H](O)[C@@H](CO)O[C@H]1C(=O)N(c1cc(Cl)cc(C#N)c1)[C@H]1CCCC[C@@H]1O :: 7.92

List pIC50 for every entry below, keeping the order given.
1. CO[C@@H]1[C@@H](n2cc(-c3cc(F)c(F)c(F)c3)nn2)[C@@H](O)[C@@H](CO)O[C@@H]1CC1CN(C2CCN(S(=O)(=O)C(C)(C)C)CC2)C(=O)O1 (mixture of isomers)
2. CO[C@@H]1[C@@H](n2cc(-c3cc(F)c(F)c(F)c3)nn2)[C@@H](O)[C@@H](CO)O[C@H]1C(=O)N(c1cccc(Cl)c1)[C@H]1CCCC[C@@H]1O
3. CO[C@@H]1[C@@H](n2cc(-c3ccc(Cl)c(Cl)c3)nn2)[C@@H](O)[C@@H](CO)O[C@H]1C(=O)N(c1cc(Cl)cc(Cl)c1)[C@H]1CCCC[C@@H]1O
4. CO[C@@H]1[C@@H](n2cc(-c3cc(F)c(F)c(F)c3)nn2)[C@@H](O)[C@@H](CO)O[C@@H]1CC1=NO[C@]2(CC[C@@H](NC(C)=O)CC2)C1
5. CO[C@@H]1[C@@H](n2cc(-c3ccc(C)c(F)c3F)nn2)[C@@H](O)[C@@H](CO)O[C@H]1C(=O)N(c1cc(Cl)cc(Cl)c1)[C@@H]1CC[C@H]1O
6. COc1cc(-c2cn([C@H]3[C@@H](O)[C@@H](CO)O[C@@H](C(=O)N(c4cc(Br)cc(Br)c4)[C@H]4CC[C@@H]4O)[C@@H]3OC)nn2)cc(F)c1F

A.
1. 7.17
2. 7.68
3. 7.96
4. 6.35
5. 7.13
6. 6.95

List pIC50 for every entry below, keeping the order given.
1. CO[C@@H]1[C@@H](n2cc(-c3cc(F)c(F)c(F)c3)nn2)[C@@H](O)[C@@H](CO)O[C@@H]1Cc1cn(C2CCN(S(=O)(=O)C(C)C)CC2)nn1
2. CO[C@@H]1[C@@H](n2cc(-c3cc(F)c(F)c(F)c3)nn2)[C@@H](O)[C@@H](CO)O[C@@H]1Cc1cc(C2CCC2)on1
3. CO[C@@H]1[C@@H](n2cc(-c3cc(F)c(Cl)c(Cl)c3)nn2)[C@@H](O)[C@@H](CO)O[C@H]1C(=O)N(c1cc(Cl)cc(C#N)c1)[C@@H]1CC[C@H]1O
4. CO[C@@H]1[C@@H](n2cc(-c3cc(F)cc(F)c3)nn2)[C@@H](O)[C@@H](CO)O[C@@H]1Cc1cn(C2CCN(C(=O)OCc3ccccc3)CC2)nn1
5. CO[C@@H]1[C@@H](n2cc(-c3ccc(C)c(F)c3F)nn2)[C@@H](O)[C@@H](CO)O[C@@H]1CC1=NOC2(CCC(C#N)CC2)C1 (stereo partly drawn)

A.
1. 7.60
2. 6.74
3. 6.65
4. 7.82
5. 7.00

List pIC50 for every entry below, keeping the order given.
1. CO[C@@H]1[C@@H](n2cc(-c3cc(F)c(F)c(F)c3)nn2)[C@@H](O)[C@@H](CO)O[C@H]1C(=O)N(c1cc(C)n(C)n1)[C@H]1CCCC[C@@H]1O
2. CNC(=O)CO[C@@H]1[C@@H](n2cc(-c3cc(F)c(F)c(F)c3)nn2)[C@@H](O)[C@@H](CO)O[C@@H]1CC1CC(C2CCN(C(=O)OC(C)(C)C)CC2)=NO1 (mixture of isomers)

A.
[6.49, 6.85]

* * *

Record set: pIC50 | Galectin-3 (Homo sapiens) | literature, multiple sources.
Numbers only, as −log10 of the molar value.

// solved cases for pIC50 follow
CO[C@@H]1[C@@H](n2cc(-c3cc(F)c(F)c(F)c3)nn2)[C@@H](O)[C@@H](CO)O[C@@H]1Cc1cc(C2CCOCC2)on1 :: 6.57
COC1C(n2cc(-c3cc(F)c(F)c(F)c3)nn2)[C@@H](O)C(CO)O[C@H]1[C@H](OCc1ccc(Br)cc1)C(=O)NC(C)C (some centres unmarked) :: 6.57
O=C([C@@H]1O[C@H](CO)[C@H](O)[C@H](n2cc(-c3cc(F)c(Cl)c(F)c3)nn2)[C@H]1O)N(c1cc(Cl)cc(Cl)c1)[C@H]1CCC[C@@H]1O :: 7.84
CO[C@@H]1[C@@H](n2cc(-c3cc(F)c(F)c(F)c3)nn2)[C@@H](O)[C@@H](CO)O[C@@H]1CC1=NOC2(CCOCC2)C1 :: 6.12
OC[C@H]1O[C@H](CC2CC(C3CCCC3)=NO2)[C@H](O)[C@@H](n2cc(-c3cc(F)c(F)c(F)c3)nn2)[C@H]1O (some centres unmarked) :: 6.29

List pIC50 for every entry below, keeping the order given.
1. O=C(CO[C@@H]1[C@@H](n2cc(-c3cc(F)c(F)c(F)c3)nn2)[C@@H](O)[C@@H](CO)O[C@H]1C(=O)N(c1cc(Cl)cc(Cl)c1)[C@H]1CCCC[C@@H]1O)N1CC[C@H](O)C1
2. CO[C@@H]1[C@@H](n2cc(-c3cc(F)c(F)c(F)c3)nn2)[C@@H](O)[C@@H](CO)O[C@@H]1Cc1cc(C2CCN(C(=O)C3CCC3)CC2)on1
3. CO[C@@H]1[C@@H](n2cc(-c3ccc(C)c(F)c3F)nn2)[C@@H](O)[C@@H](CO)O[C@@H]1Cc1cc(C(C)(C)C)on1
4. O=C([C@@H]1O[C@H](CO)[C@H](O)[C@H](n2cc(-c3cc(F)c(F)c(F)c3)nn2)[C@H]1O)N(Cc1cnsc1)[C@H]1CCCC[C@@H]1O
5. CCOC(=O)N1CCC(c2cc(C[C@H]3O[C@H](CO)[C@H](O)[C@H](n4cc(-c5cc(F)c(F)c(Cl)c5)nn4)[C@H]3OC)no2)CC1
6. CO[C@@H]1[C@@H](n2cc(-c3cc(F)c(F)c(F)c3)nn2)[C@@H](O)[C@@H](CO)O[C@H]1C(=O)N(c1cc(F)cc(C#N)c1)[C@H]1CCCC[C@@H]1O

A.
[8.05, 7.35, 7.22, 6.75, 7.46, 7.74]
